B1: Storkhead-box protein 2, residues 64 to 141; numbered along this chain, Q9P2F5 (parent)
chain: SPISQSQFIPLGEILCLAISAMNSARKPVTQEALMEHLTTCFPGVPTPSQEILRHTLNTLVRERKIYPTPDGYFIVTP

Variants of: B1
measurement.description: abundance fitness (aPCA) (normalised: wild type 0, dead -1); higher = more abundant; growth selection in yeast, the domain comes from the species named
experimental.context: Homo sapiens
Entry flag: Y if abundance fitness reaches -0.1; N if it does not.

Evaluate SPISQSQFIPLGEILCLAISAMNSARKPVTQEALMEHTTTCFPGVPTPSQEILRHTLNTLVRERKIYPTPDGYFIVTP [L38T] : abundance fitness at minimum -0.1? N

Evaluate SPISQSQFIPLGEILCLAISAMNSARKPVTQEALMEHLTTCFPGWPTPSQEILRHTLNTLVRERKIYPTPDGYFIVTP [V45W] : abundance fitness at minimum -0.1? Y

Evaluate SPISQSQFIPLGEILCLAISAMNSARKPVTQEALMEHLTTCFPGVPTPSQEILRHTLNTLVRERKIYPTPDGYMIVTP [F74M] : abundance fitness at minimum -0.1? Y

Evaluate SPISQSQFIPLGEILCLAISAMNSARKPVTQPALMEHLTTCFPGVPTPSQEILRHTLNTLVRERKIYPTPDGYFIVTP [E32P] : abundance fitness at minimum -0.1? Y

Evaluate SPISQSQFIPLGEILCLAISAMNSARKPVTQEALMEHLTTCFPGEPTPSQEILRHTLNTLVRERKIYPTPDGYFIVTP [V45E] : abundance fitness at minimum -0.1? N

Evaluate SPISQSQFIPLGEILCLAISAMNSARKPVTQEALMEHLTTIFPGVPTPSQEILRHTLNTLVRERKIYPTPDGYFIVTP [C41I] : abundance fitness at minimum -0.1? N

Evaluate SPISQSQFIPLGEILCLAISNMNSARKPVTQEALMEHLTTCFPGVPTPSQEILRHTLNTLVRERKIYPTPDGYFIVTP [A21N] : abundance fitness at minimum -0.1? Y

Evaluate SPISQSQFIPLGEILCLAISAMNSARKPVTQEALMEHLTTCFPGVPTPSQEILRHTLNTLIRERKIYPTPDGYFIVTP [V61I] : abundance fitness at minimum -0.1? Y

Evaluate SPISQSQFIPLGEILCLAISAMNSARKPVTQEALMEHLTTCFPGVPTPSQEILRHTLNTLVRERKIYPTPCGYFIVTP [D71C] : abundance fitness at minimum -0.1? N

Evaluate SPISQSQFIPLGEILCLAISAMNSARKPVTQEALMEHLTTCFPGVPTPSQEILRHTHNTLVRERKIYPTPDGYFIVTP [L57H] : abundance fitness at minimum -0.1? N

Evaluate SPISQSQFIPLGEILCLMISAMNSARKPVTQEALMEHLTTCFPGVPTPSQEILRHTLNTLVRERKIYPTPDGYFIVTP [A18M] : abundance fitness at minimum -0.1? N
